target or system: D(2) dopamine receptor (Homo sapiens, UniProt P14416)
Sequence (P14416 whole entry): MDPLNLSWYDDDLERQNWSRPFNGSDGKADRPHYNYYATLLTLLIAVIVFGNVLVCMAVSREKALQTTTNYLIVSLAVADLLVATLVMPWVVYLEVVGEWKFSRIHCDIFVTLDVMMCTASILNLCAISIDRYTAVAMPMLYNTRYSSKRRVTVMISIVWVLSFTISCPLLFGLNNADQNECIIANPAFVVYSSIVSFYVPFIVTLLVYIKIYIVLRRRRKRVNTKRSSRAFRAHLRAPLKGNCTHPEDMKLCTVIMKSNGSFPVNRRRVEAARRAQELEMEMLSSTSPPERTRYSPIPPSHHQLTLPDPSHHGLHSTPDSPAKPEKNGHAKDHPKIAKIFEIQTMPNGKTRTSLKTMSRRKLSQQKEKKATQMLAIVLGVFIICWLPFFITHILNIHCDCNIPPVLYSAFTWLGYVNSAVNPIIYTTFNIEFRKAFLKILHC
assay protocol: Agonist activity at human dopamine D2L receptor expressed in CHO cell membranes incubated for 1 hr by [35S]GTPgammaS binding assay relative to 100 uM quinelorane
Format: functional
// reported Emax per item
Give the number; % is assumed, so skip it.

Observe how each entry below is paired with its result.
CCCN(CCCCCCNc1nc(N)n2nc(-c3ccco3)nc2n1)CCc1cccc2c1CC(=O)N2    77
CCCN(CCCNC(=O)CCCCCCCNC(=O)CCCOc1ccc(CCNc2nc(N)n3nc(-c4ccco4)nc3n2)cc1)CCc1cccc2c1CC(=O)N2    77
CCCN(CCCNC(=O)CCCOc1ccc(CCNc2nc(N)n3nc(-c4ccco4)nc3n2)cc1)CCc1cccc2c1CC(=O)N2    95

### Prompt Consider the molecule shown here: CCCN(CCCNC(=O)CCCCCCCCCCCNC(=O)OC(C)(C)C)CCc1cccc2c1CC(=O)N2 What is its recorded Emax?
### Response 66

### Prompt Moving on to the next molecule: CCCN(CCCNC(=O)CCCNC(=O)CCCOc1ccc(CCNc2nc(N)n3nc(-c4ccco4)nc3n2)cc1)CCc1cccc2c1CC(=O)N2
### Response 68

### Prompt Moving on to the next molecule: CCCN(CCCNC(=O)COc1ccc(CCNc2nc(N)n3nc(-c4ccco4)nc3n2)cc1)CCc1cccc2c1CC(=O)N2
### Response 88

### Prompt Moving on to the next molecule: CCCN(CCCNC(=O)CCCC(=O)Oc1ccc(CCNc2nc(N)n3nc(-c4ccco4)nc3n2)cc1)CCc1cccc2c1CC(=O)N2
### Response 79

----------
// reported IC50 per item
target or system: Adenosine receptor A2a (Homo sapiens)
Sequence (P29274 whole entry): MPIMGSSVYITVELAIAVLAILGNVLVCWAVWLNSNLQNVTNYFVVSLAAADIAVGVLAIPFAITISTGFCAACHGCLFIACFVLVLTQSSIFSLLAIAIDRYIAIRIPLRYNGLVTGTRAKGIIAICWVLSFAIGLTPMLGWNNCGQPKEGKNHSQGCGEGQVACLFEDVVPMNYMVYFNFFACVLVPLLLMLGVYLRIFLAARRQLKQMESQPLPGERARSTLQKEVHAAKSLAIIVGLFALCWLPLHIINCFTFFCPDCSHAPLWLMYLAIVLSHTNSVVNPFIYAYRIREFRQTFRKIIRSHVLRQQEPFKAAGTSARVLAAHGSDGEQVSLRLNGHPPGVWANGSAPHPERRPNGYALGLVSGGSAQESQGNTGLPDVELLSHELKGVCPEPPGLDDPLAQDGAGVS
assay protocol: Inhibition of human adenosine A2A receptor expressed in FlpIn-CHO cells assessed as inhibition of NECA-induced cAMP accumulation incubated for 30 mins by fluorescence assay
Assay type: functional, cell-based
details: read-out: pIC50 (converted)

CCCN(CCCCCCNc1nc(N)n2nc(-c3ccco3)nc2n1)CCc1cccc2c1CC(=O)N2    1780 nM
CCCN(CCCNc1nc(N)n2nc(-c3ccco3)nc2n1)CCc1cccc2c1CC(=O)N2    912 nM

### Prompt Consider the compound shown here: CCCN(CCCNC(=O)COc1ccc(CCNc2nc(N)n3nc(-c4ccco4)nc3n2)cc1)CCc1cccc2c1CC(=O)N2 What is its recorded IC50?
### Response 63.1 nM

### Prompt Moving on to the next compound: CCCN(CCc1cccc2c1CC(=O)N2)c1nc(N)n2nc(-c3ccco3)nc2n1
### Response 32.4 nM

### Prompt Moving on to the next compound: COC(=O)CCCCCCCCCCCNC(=O)CCCOc1ccc(CCNc2nc(N)n3nc(-c4ccco4)nc3n2)cc1
### Response 437 nM

### Prompt Moving on to the next compound: CCCN(CCCNC(=O)CCCOc1ccc(CCNc2nc(N)n3nc(-c4ccco4)nc3n2)cc1)CCc1cccc2c1CC(=O)N2
### Response 18.2 nM

### Prompt Moving on to the next compound: CCCN(CCCNC(=O)CCCCCCCNC(=O)CCCOc1ccc(CCNc2nc(N)n3nc(-c4ccco4)nc3n2)cc1)CCc1cccc2c1CC(=O)N2
### Response 40.7 nM

### Prompt Moving on to the next compound: Nc1nc(N2CCN(CCc3cccc4c3CC(=O)N4)CC2)nc2nc(-c3ccco3)nn12
### Response 58.9 nM

### Prompt Moving on to the next compound: CCCN(CCCNC(=O)CCCNC(=O)CCCOc1ccc(CCNc2nc(N)n3nc(-c4ccco4)nc3n2)cc1)CCc1cccc2c1CC(=O)N2
### Response 110 nM

----------
target or system: D(2) dopamine receptor (Homo sapiens)
assay protocol: Agonist activity at human dopamine D2L receptor expressed in CHO cell membranes incubated for 1 hr by [35S]GTPgammaS binding assay
// reported EC50 per item
Give the number; nM is assumed, so skip it.

CCCN(CCCNC(=O)CCCOc1ccc(CCNc2nc(N)n3nc(-c4ccco4)nc3n2)cc1)CCc1cccc2c1CC(=O)N2    204
CCCN(CCCNC(=O)CCCCCCCCCCCNC(=O)OC(C)(C)C)CCc1cccc2c1CC(=O)N2    114
CCCN(CCCCCCNc1nc(N)n2nc(-c3ccco3)nc2n1)CCc1cccc2c1CC(=O)N2    38
CCCN(CCCNc1nc(N)n2nc(-c3ccco3)nc2n1)CCc1cccc2c1CC(=O)N2    88
CCCN(CCCNC(=O)CCCCCCCCCCCNC(=O)CCCOc1ccc(CCNc2nc(N)n3nc(-c4ccco4)nc3n2)cc1)CCc1cccc2c1CC(=O)N2    1400

### Prompt Consider the molecule shown here: CCCN(CCCNC(=O)COc1ccc(CCNc2nc(N)n3nc(-c4ccco4)nc3n2)cc1)CCc1cccc2c1CC(=O)N2 What is its recorded EC50?
### Response 148

### Prompt Moving on to the next molecule: CCCN(CCCNc1nc(Oc2ccc(CCNc3nc(N)n4nc(-c5ccco5)nc4n3)cc2)nc(N2CCOCC2)n1)CCc1cccc2c1CC(=O)N2.O=CO
### Response 311

### Prompt Moving on to the next molecule: CCCN(CCCNC(=O)CCCNC(=O)CCCOc1ccc(CCNc2nc(N)n3nc(-c4ccco4)nc3n2)cc1)CCc1cccc2c1CC(=O)N2
### Response 785

### Prompt Moving on to the next molecule: CCCN(CCCNC(=O)CCCCCCCNC(=O)CCCOc1ccc(CCNc2nc(N)n3nc(-c4ccco4)nc3n2)cc1)CCc1cccc2c1CC(=O)N2
### Response 501

### Prompt Moving on to the next molecule: CCCN(CCCNC(=O)CCCC(=O)Oc1ccc(CCNc2nc(N)n3nc(-c4ccco4)nc3n2)cc1)CCc1cccc2c1CC(=O)N2
### Response 484

### Prompt Moving on to the next molecule: CN(CCCNc1nc(N)n2nc(-c3ccco3)nc2n1)CCc1cccc2c1CC(=O)N2
### Response 389

----------
target or system: Adenosine receptor A2a (Homo sapiens)
assay protocol: Inhibition of human adenosine A2A receptor expressed in FlpIn-CHO cells assessed as inhibition of NECA-induced cAMP accumulation incubated for 30 mins by fluorescence assay
Type: functional, cell-based
details: read-out: pIC50 (converted)
quantity kind: IC50 (µM)
Give the number; µM is assumed, so skip it.

CC(C)(C)OC(=O)N1CCC(Nc2nc(N)n3nc(-c4ccco4)nc3n2)CC1    1.74
Nc1nc(NCCc2ccc(Oc3nc(Cl)nc(N4CCOCC4)n3)cc2)nc2nc(-c3ccco3)nn12    0.135
Nc1nc(NC2CCN(CCc3cccc4c3CC(=O)N4)CC2)nc2nc(-c3ccco3)nn12    1.51

### Prompt Consider the compound shown here: CN(CCCNc1nc(N)n2nc(-c3ccco3)nc2n1)CCc1cccc2c1CC(=O)N2 What is its recorded IC50?
### Response 1.12

### Prompt Moving on to the next compound: CCCN(CCCNC(=O)CCCC(=O)Oc1ccc(CCNc2nc(N)n3nc(-c4ccco4)nc3n2)cc1)CCc1cccc2c1CC(=O)N2
### Response 0.0355

### Prompt Moving on to the next compound: CCCN(CCCNc1nc(Oc2ccc(CCNc3nc(N)n4nc(-c5ccco5)nc4n3)cc2)nc(N2CCOCC2)n1)CCc1cccc2c1CC(=O)N2.O=CO
### Response 0.12

### Prompt Moving on to the next compound: Nc1nc(N2CCCN(CCc3cccc4c3CC(=O)N4)CC2)nc2nc(-c3ccco3)nn12.O=C(O)C(F)(F)F
### Response 1.48

### Prompt Moving on to the next compound: CCCN(CCCNC(=O)CCCCCCCCCCCNC(=O)CCCOc1ccc(CCNc2nc(N)n3nc(-c4ccco4)nc3n2)cc1)CCc1cccc2c1CC(=O)N2
### Response 1.07

----------
target or system: Adenosine receptor A2a (Homo sapiens)
assay protocol: Inhibition of human adenosine A2A receptor expressed in FlpIn-CHO cells assessed as inhibition of NECA-induced cAMP accumulation incubated for 30 mins by fluorescence assay
Format: functional, cell-based
details: read-out: IC50
# if measured IC50 < 100 nM: 1 (yes)  # else: 0 (no)

These recorded examples may help you get a feel for the data.
CCCN(CCCNC(=O)CCCNC(=O)CCCOc1ccc(CCNc2nc(N)n3nc(-c4ccco4)nc3n2)cc1)CCc1cccc2c1CC(=O)N2    0 (no)
CCCN(CCCNC(=O)CCCCCCCNC(=O)CCCOc1ccc(CCNc2nc(N)n3nc(-c4ccco4)nc3n2)cc1)CCc1cccc2c1CC(=O)N2    1 (yes)
CCCN(CCc1cccc2c1CC(=O)N2)c1nc(N)n2nc(-c3ccco3)nc2n1    1 (yes)
CCCN(CCCNc1nc(Oc2ccc(CCNc3nc(N)n4nc(-c5ccco5)nc4n3)cc2)nc(N2CCOCC2)n1)CCc1cccc2c1CC(=O)N2.O=CO    0 (no)
CCCN(CCCNC(=O)COc1ccc(CCNc2nc(N)n3nc(-c4ccco4)nc3n2)cc1)CCc1cccc2c1CC(=O)N2    1 (yes)
CC(C)(C)OC(=O)N1CCC(Nc2nc(N)n3nc(-c4ccco4)nc3n2)CC1    0 (no)
CN(CCCNc1nc(N)n2nc(-c3ccco3)nc2n1)CCc1cccc2c1CC(=O)N2    0 (no)
Nc1nc(NC2CCN(CCc3cccc4c3CC(=O)N4)CC2)nc2nc(-c3ccco3)nn12    0 (no)
CCCN(CCCNc1nc(N)n2nc(-c3ccco3)nc2n1)CCc1cccc2c1CC(=O)N2    0 (no)
CCCN(CCCNC(=O)CCCC(=O)Oc1ccc(CCNc2nc(N)n3nc(-c4ccco4)nc3n2)cc1)CCc1cccc2c1CC(=O)N2    1 (yes)

### Prompt Given Nc1nc(N2CCCN(CCc3cccc4c3CC(=O)N4)CC2)nc2nc(-c3ccco3)nn12.O=C(O)C(F)(F)F , is recorded IC50 strictly lower than 100 nM?
### Response 0 (no)

### Prompt Moving on to the next compound: CCCN(CCCNC(=O)CCCOc1ccc(CCNc2nc(N)n3nc(-c4ccco4)nc3n2)cc1)CCc1cccc2c1CC(=O)N2
### Response 1 (yes)

### Prompt Moving on to the next compound: CCCN(CCCNC(=O)CCCCCCCCCCCNC(=O)OC(C)(C)C)CCc1cccc2c1CC(=O)N2
### Response 0 (no)

### Prompt Moving on to the next compound: Nc1nc(NCCc2ccc(Oc3nc(Cl)nc(N4CCOCC4)n3)cc2)nc2nc(-c3ccco3)nn12
### Response 0 (no)

### Prompt Moving on to the next compound: CCCN(CCCCCCNc1nc(N)n2nc(-c3ccco3)nc2n1)CCc1cccc2c1CC(=O)N2
### Response 0 (no)

### Prompt Moving on to the next compound: Nc1nc(N2CCN(CCc3cccc4c3CC(=O)N4)CC2)nc2nc(-c3ccco3)nn12
### Response 1 (yes)

### Prompt Moving on to the next compound: CCCN(CCCNC(=O)CCCCCCCCCCCNC(=O)CCCOc1ccc(CCNc2nc(N)n3nc(-c4ccco4)nc3n2)cc1)CCc1cccc2c1CC(=O)N2
### Response 0 (no)

### Prompt Moving on to the next compound: COC(=O)CCCCCCCCCCCNC(=O)CCCOc1ccc(CCNc2nc(N)n3nc(-c4ccco4)nc3n2)cc1
### Response 0 (no)

All figures here come from ChEMBL document CHEMBL3392981.
